target under test: purified LasB protein from P. aeruginosa (Pseudomonas aeruginosa, UniProt P14756)
Construct: purchased Merck or Charles River Laboratories
Sequence (P14756 198-498): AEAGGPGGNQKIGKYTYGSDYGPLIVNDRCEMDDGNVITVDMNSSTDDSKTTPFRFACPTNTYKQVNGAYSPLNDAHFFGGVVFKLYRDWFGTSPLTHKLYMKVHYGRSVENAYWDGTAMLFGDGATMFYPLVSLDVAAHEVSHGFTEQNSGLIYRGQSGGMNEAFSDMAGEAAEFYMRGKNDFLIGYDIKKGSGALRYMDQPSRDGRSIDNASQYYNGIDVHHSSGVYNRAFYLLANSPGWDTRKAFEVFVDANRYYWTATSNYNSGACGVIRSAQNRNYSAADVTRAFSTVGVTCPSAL
protocol: Fluorometric assay to determine Ki (Assay 1)
Type: biochemical
experimental context: Ki (μM) Assay 1, purified LasB, substrate Abz-Ala-Gly-Leu-Ala-p-Nitro-Benzyl-Amide 250 μM, Ki calculated from IC50; inhibitor 0.006 to 200 μM
observation type: Ki

>  <compound>
O=C(O)CC1(C(=O)NCc2nc3c(F)cccc3s2)Cc2ccccc2C1 [Example 60]

>  <Ki>
< 0.3 µM

$$$$
>  <compound>
N[C@H]1CCN(c2ccc3nc(CNC(=O)C4(CC(=O)O)Cc5ccccc5C4)sc3c2)C1 [Example 101]

>  <Ki>
0.3 to 2 µM

$$$$
>  <compound>
CN(C)Cc1ccc2nc(CNC(=O)C3(CC(=O)O)Cc4ccccc4C3)sc2c1 [Example 81]

>  <Ki>
2 to 10 µM

$$$$
>  <compound>
CN(C)C[C@H]1C[C@@H](c2ccc3nc(CNC(=O)C4(CC(=O)O)Cc5ccccc5C4)sc3c2)C1 [Example 93]

>  <Ki>
< 0.3 µM

$$$$
>  <compound>
NCCNc1ccc2nc(CNC(=O)C3(CC(=O)O)Cc4ccccc4C3)sc2c1 [Example 69]

>  <Ki>
0.3 to 2 µM

$$$$

// sample O=C(O)CC1(C(=O)NCc2cc3cc(Br)ccc3o2)Cc2ccccc2C1 [Example 18] , its Ki was < 0.3 µM

// sample NCCc1ccc2nc(CNC(=O)C3(CC(=O)O)Cc4ccccc4C3)sc2c1 [Example 80] , its Ki was 0.3 to 2 µM

// sample O=C(O)CC1(C(=O)NCCc2nc3ccccc3o2)Cc2ccccc2C1 [Example 31] , its Ki was 2 to 10 µM

// sample CN(C)C1CC(Oc2ccc3nc(CNC(=O)C4(CC(=O)O)Cc5ccccc5C4)sc3c2)C1 (stereo not shown) [Example 79] , its Ki was 0.3 to 2 µM

###

Reported Ki values are given for each entry in this list.
target under test: purified LasB protein from P. aeruginosa (Pseudomonas aeruginosa)
Construct: purchased Merck or Charles River Laboratories
protocol: Fluorometric assay to determine Ki (Assay 1)
Format: biochemical
experimental context: Ki (μM) Assay 1, purified LasB, substrate Abz-Ala-Gly-Leu-Ala-p-Nitro-Benzyl-Amide 250 μM, Ki calculated from IC50; inhibitor 0.006 to 200 μM

>  <compound>
Cc1c(CNC(=O)C2(CC(=O)O)Cc3ccccc3C2)oc2ccccc12 [Example 11]

>  <observation type>
Ki

>  <test result>
0.3 to 2 µM

$$$$

// sample NCc1nnc([C@H](Cc2c[nH]c3ccccc23)NC(=O)C2(CC(=O)O)Cc3ccccc3C2)o1 [Example 118] , its Ki was < 0.3 µM

// sample O=C(O)CC1(C(=O)NCCc2c[nH]c3ccccc23)Cc2ccccc2C1 [Example 14] , its Ki was < 0.3 µM

// sample O=C(O)CC1(C(=O)NCCc2cc3ccccc3o2)Cc2ccccc2C1 [Example 19] , its Ki was 2 to 10 µM

// sample CN(C)CCCc1ccc2sc(CNC(=O)C3(CC(=O)O)Cc4ccccc4C3)nc2c1 [Example 89] , its Ki was 0.3 to 2 µM

// sample N[C@@H]1CCN(c2ccc3nc(CNC(=O)C4(CC(=O)O)Cc5ccccc5C4)sc3c2)C1 [Example 102] , its Ki was < 0.3 µM

// sample O=C(O)CC1(C(=O)NCc2cc3ccccc3[nH]2)Cc2ccccc2C1 [Example 29] , its Ki was < 0.3 µM

###

target under test: purified LasB protein from P. aeruginosa (Pseudomonas aeruginosa)
Construct: purchased Merck or Charles River Laboratories
protocol: Fluorometric assay to determine Ki (Assay 1)
Assay type: biochemical
experimental context: Ki (μM) Assay 1, purified LasB, substrate Abz-Ala-Gly-Leu-Ala-p-Nitro-Benzyl-Amide 250 μM, Ki calculated from IC50; inhibitor 0.006 to 200 μM
observation type: Ki

// sample "O=C(O)CC1(C(=O)NCc2ccc3ccccc3n2)Cc2ccccc2C1" , its Ki was 0.3 to 2 µM

// sample "C[N+](C)(C)CCNc1ccc2sc(CNC(=O)C3(CC(=O)[O-])Cc4ccccc4C3)nc2c1" , its Ki was 0.3 to 2 µM

// sample "O=C(O)CC1(C(=O)NCc2cc3ccccc3cn2)Cc2ccccc2C1" , its Ki was 0.3 to 2 µM

// sample "NCCCc1ccc2sc(CNC(=O)C3(CC(=O)O)Cc4ccccc4C3)nc2c1" , its Ki was < 0.3 µM

// sample "CCOc1cccc2sc(CNC(=O)C3(CC(=O)O)Cc4ccccc4C3)nc12" , its Ki was 0.3 to 2 µM

// sample "CN(C)CC#Cc1ccc2nc(CNC(=O)C3(CC(=O)O)Cc4ccccc4C3)sc2c1" , its Ki was < 0.3 µM

// sample "C[N+](C)(C)CCCc1ccc2sc(CNC(=O)C3(CC(=O)[O-])Cc4ccccc4C3)nc2c1" , its Ki was 0.3 to 2 µM

###

target under test: LasB elastase activity in dialysed supernatant from P. aeruginosa strain PA01 (Pseudomonas aeruginosa, UniProt P14756)
Construct: uses as source of enzyme dialysed supernatant from P. aeruginosa; endogenous in cells; host or cells: P. aeruginosa strain PA01 culture supernatant, filtered and dialysed
protocol: Elastin Congo Red assay to determine % inhibition (Assay 1)
Type: biochemical
experimental context: read-out: Elastin hydrolysis % inhibition @ 50/25 μM inhibitor concentration Assay 1
observation type: inhibition at 50 µM

Check out these entries, answers already filled in.
>  <compound>
O=C(O)CC1(C(=O)NCc2nc3cc(O)ccc3s2)Cc2ccccc2C1

>  <observation type>
inhibition at 50 µM

>  <test result>
> 60%

$$$$
>  <compound>
C[N+](C)(C)CCOc1ccc2nc(CNC(=O)C3(CC(=O)[O-])Cc4ccccc4C3)sc2c1

>  <observation type>
inhibition at 50 µM

>  <test result>
30 to 60%

$$$$
>  <compound>
C[N+](C)(C)CC#Cc1ccc2nc(CNC(=O)C3(CC(=O)[O-])Cc4ccccc4C3)sc2c1

>  <observation type>
inhibition at 50 µM

>  <test result>
> 60%

$$$$
>  <compound>
O=C(O)CC1(C(=O)NCCc2ccc(O)cc2)Cc2ccccc2C1

>  <observation type>
inhibition at 50 µM

>  <test result>
30 to 60%

$$$$
>  <compound>
O=C(O)CC1(C(=O)NCc2ccccc2)Cc2ccccc2C1

>  <observation type>
inhibition at 50 µM

>  <test result>
30 to 60%

$$$$

// sample CC(NC(=O)C1(CC(=O)O)Cc2ccccc2C1)c1cc2ccccc2o1 (single isomer, unassigned) , its inhibition at 50 µM was 30 to 60%

// sample "COC(=O)[C@H](Cc1c[nH]c2ccccc12)NC(=O)C1(CC(=O)O)Cc2ccccc2C1" , its inhibition at 50 µM was > 60%

// sample "NC1CN(c2ccc3sc(CNC(=O)C4(CC(=O)O)Cc5ccccc5C4)nc3c2)C1" , its inhibition at 50 µM was > 60%

// sample "O=C(O)CC1(C(=O)NCc2c[nH]c3ccccc23)Cc2ccccc2C1" , its inhibition at 50 µM was 30 to 60%

// sample "CN(C)CCNc1ccc2sc(CNC(=O)C3(CC(=O)O)Cc4ccccc4C3)nc2c1" , its inhibition at 50 µM was > 60%

// sample "O=C(O)CC1(C(=O)NCc2nccs2)Cc2ccccc2C1" , its inhibition at 50 µM was > 60%

// sample "O=C(O)CC1(C(=O)NCCc2nc3ccccc3[nH]2)Cc2ccccc2C1" , its inhibition at 50 µM was 15 to 30%

// sample "O=C(O)CC1(C(=O)NCc2nc3cc(Cl)ccc3[nH]2)Cc2ccccc2C1" , its inhibition at 50 µM was 30 to 60%

// sample "C[N+](C)(C)C[C@H]1C[C@H](c2ccc3nc(CNC(=O)C4(CC(=O)[O-])Cc5ccccc5C4)sc3c2)C1" , its inhibition at 50 µM was > 60%

// sample "COc1cccc2sc(CNC(=O)C3(CC(=O)O)Cc4ccccc4C3)nc12" , its inhibition at 50 µM was > 60%

// sample "O=C(O)CC1(C(=O)NCc2cc3ccccc3cn2)Cc2ccccc2C1" , its inhibition at 50 µM was 30 to 60%

// sample "Cn1c(CNC(=O)C2(CC(=O)O)Cc3ccccc3C2)nc2ccccc21" , its inhibition at 50 µM was 30 to 60%

// sample "C[N+]1(C)CCN(c2ccc3nc(CNC(=O)C4(CC(=O)O)Cc5ccccc5C4)sc3c2)CC1" , its inhibition at 50 µM was 30 to 60%

// sample "CN(C)CCCc1ccc2sc(CNC(=O)C3(CC(=O)O)Cc4ccccc4C3)nc2c1" , its inhibition at 50 µM was > 60%

// sample "NC(=O)[C@H](Cc1ccc(O)cc1)NC(=O)C1(CC(=O)O)Cc2ccccc2C1" , its inhibition at 50 µM was 30 to 60%

// sample "N[C@@H]1CCN(c2ccc3nc(CNC(=O)C4(CC(=O)O)Cc5ccccc5C4)sc3c2)C1" , its inhibition at 50 µM was > 60%

// sample "O=C(O)CC1(C(=O)NCc2nc3cc(Cl)ccc3s2)Cc2ccccc2C1" , its inhibition at 50 µM was > 60%
